The measurements presented in this section are drawn from PubChem BioAssay AID1996.

Settings: buffer; pH 7.4; 200.0 µM
property: solubility kinetic

What does the data say about its solubility kinetic? Entry: N#Cc1ccc(C(=O)N2CCN(C(=O)C3CCCO3)CC2)cc1 (stereo unspecified) > 47 µg/mL

Recorded solubility kinetic of `CC(C)CNS(=O)(=O)c1ccc(CCC(=O)NC2CCCCC2)cc1` , please. 10.5 µg/mL

Fill in: solubility kinetic of `Cc1ccc(S(=O)(=O)CCN2CCN(c3ccccn3)CC2)cc1` is ___ > 51.8 µg/mL

Can you share its solubility kinetic? I mean this compound: `Cc1[nH]c2ccccc2c(=O)c1CN1CCCCCC1` > 40.6 µg/mL

Which solubility kinetic is reported for this compound? `COc1cc(OC)cc(C(=O)Nc2cccc3nc(C)ccc23)c1` 2.9 µg/mL

Please report the recorded solubility kinetic for `COC(=O)c1sccc1NC(=O)Nc1ccc(F)cc1` . 28.4 µg/mL

solubility kinetic lookup needed for `NS(=O)(=O)c1ccc(CCNC(=O)COC(=O)CCc2c[nH]c3ccccc23)cc1` , thanks. > 64.4 µg/mL

Which solubility kinetic reading was recorded for the compound O=C(Nc1cccc([N+](=O)[O-])c1)NC1CCS(=O)(=O)C1 (stereo unspecified) ? > 44.9 µg/mL

Which solubility kinetic value belongs to CC1CN(C(=O)COC(=O)c2ccccc2O)CC(C)O1 (stereo unspecified) ? 40.1 µg/mL

I'd like to know its solubility kinetic. The compound in question is `COc1ccc(C(=O)COC(=O)/C=C/c2ccccc2[N+](=O)[O-])cc1` 10.2 µg/mL

Give its solubility kinetic value. Item: COCC(C)n1c(SCC(=O)NC2CCCCC2C)nc2ccccc2c1=O (stereo unspecified) > 60.5 µg/mL
